Origin of values: PubChem BioAssay

This section presents compounds with their documented composite z-score values.
- TARGET_OR_SYSTEM: Calmodulin-1 (Homo sapiens) (UniProt P0DP23)
- ASSAY_PROTOCOL: calcium-bound CALM1 binders on microarrays, profiling panel, artefact control for SMM control-protein annotation, biochemical, small-molecule microarray, Cy5-labelled CALM1, plus calcium (AID 1112);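 also: score merges spot fluorescence with signal to noise from triplicate slides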
- CONDITION_SET: Cy5-CALM1 binding fluorescence, higher = more signal
Give your answer as a number; write no unit.

Recorded results for 5 compounds are shown here.
COMPOUND	QUANTITY_KIND	MEAS_VALUE
COc1ccc(COC(=O)NN=C2C[C@@H](O)[C@@H](O)[C@@H]3[C@@H]4C(=O)N(C(C)(C)C)C(=O)[C@@H]4CC[C@H]23)cc1	composite z-score	-0.143
CC(C)=NO[C@@H](C)c1cc(-c2c(C)cc(C)cc2C)no1	composite z-score	-0.264
O=C1[C@H]2[C@H]3[C@H](O)[C@H](O)CC(=NOCc4ccccc4)[C@H]3CC[C@H]2C(=O)N1Cc1ccccc1	composite z-score	-0.477
C[C@@H]1CC[C@@H](C(=O)O)N[C@H]1c1ccc(-c2ccco2)cc1	composite z-score	-1.3
CCCNC(=O)OC[C@H]1O[C@H](CCON=C(C)CCC(=O)OC[C@H]2O[C@H](C#Cc3ccccc3)C=C[C@@H]2Oc2ccc(C)cc2)C=C[C@@H]1Oc1ccc(OC)cc1	composite z-score	-0.465

Lab note: C=C(C)C(=O)OC[C@@H]1CN2[C@@H](CC[C@@H](C)[C@@H]2c2ccc(Br)cc2)C(=O)O1 gave composite z-score of -0.157

Quick note, composite z-score for CCOC(=O)NN=C1C[C@@H](O)[C@@H](O)[C@@H]2[C@@H]3C(=O)N(Cc4ccccc4)C(=O)[C@@H]3CC[C@@H]12 landed at -0.659

Quick note, composite z-score for O=C(NN=C1C[C@@H](O)[C@@H](O)[C@@H]2[C@@H]3C(=O)N(Cc4ccc5c(c4)OCO5)C(=O)[C@@H]3CC[C@H]12)OCc1ccccc1 landed at -1.29

Value of composite z-score reported for the compound CC(C)=CCCC(C)=CCON=C1C[C@@H](O)[C@@H](O)[C@@H]2[C@@H]3C(=O)N([C@@H](C)c4ccccc4)C(=O)[C@@H]3CC[C@H]12 is -0.782

The compound identified as C[C@@H](ON=C1[C@H]2CCn3c(=O)n(-c4ccccc4)c(=O)n3[C@H]2[C@H](O)[C@@H]2O[C@H]12)c1cn([C@H](CO)Cc2ccccc2)nn1 registered its composite z-score at -0.549

GET /value?item= CC(=O)OC[C@H]1O[C@H](C#CC(C)(C)C)C=C[C@@H]1OC(C)=O &field=composite z-score returns 0.189

compound CCN1C(=O)[C@H]2[C@H]3[C@H](O)[C@H](O)CC(=NNC(=O)OCc4ccc(OC)cc4)[C@H]3CC[C@H]2C1=O , composite z-score observed: 0.161

The reported value for COC(=O)[C@H](C)NC(=O)CCC1CC(OC(=O)NCCc2ccc(F)cc2)CC2(CCCC(COC(=O)NCCCN3CCCC3=O)O2)O1 (stereo not given in full) in terms of composite z-score is -0.387

composite z-score for C#CCCCON=C1C[C@@H](O)[C@@H](O)[C@@H]2[C@@H]3C(=O)N(C4CCCCC4)C(=O)[C@@H]3CC[C@H]12 is 0.244

get_value(item= CC(C)=NOCc1ccc(-c2cn([C@@H]3COC[C@H]3O)nn2)cc1 , readout=composite z-score) returns -0.358
